Quick reference for Ki among some compounds
molecular target: SSTR2 (Homo sapiens); assay: SSTR binding affinity by radioligand binding competition assay ([125I]-Tyr11-Somatostatin, membrane extracts); conditions: radioligand competition, [125I]-Tyr11-Somatostatin 0.1 nM, membrane extracts; Ki from IC50 by Cheng Prusoff; read-out: SSTR2 Ki
Sequence (P30874 whole entry): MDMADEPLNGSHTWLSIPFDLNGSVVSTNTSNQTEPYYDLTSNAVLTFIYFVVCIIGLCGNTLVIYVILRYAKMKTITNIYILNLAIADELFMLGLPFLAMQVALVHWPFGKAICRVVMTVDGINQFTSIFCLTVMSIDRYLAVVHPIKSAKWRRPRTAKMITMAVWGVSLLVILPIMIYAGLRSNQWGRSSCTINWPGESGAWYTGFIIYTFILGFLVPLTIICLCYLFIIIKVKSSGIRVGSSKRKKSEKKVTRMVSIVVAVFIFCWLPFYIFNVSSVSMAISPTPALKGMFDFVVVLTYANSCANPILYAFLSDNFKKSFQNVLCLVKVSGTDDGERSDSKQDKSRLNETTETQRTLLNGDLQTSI
Numbered stars: 1 amine (or outer) side, 2 acyl side, 3 side chain; on linkers, the order of the positions; unused ones are H or OH. Square brackets hold non-standard residues; d marks the D form. Peptide text beside a SMILES is read from it. * marks the point of attachment. ξ: configuration not given here. DOTA(Lu)NH(CH2)6NHCOCH2 = O=C(CN1CCN2CCN3CCN(CC1)CC(=O)[O][Lu]([O]C(=O)C2)[O]C(=O)C3)NCCCCCCNC(=O)C*; X14 = O=C(CN1CCN2CCN3CCN(CC1)CC(=O)[O][Lu]([O]C(=O)C2)[O]C(=O)C3)NCC1CCC(C(=O)*)CC1; DOTA(Lu) = O=C1CN2CCN3CCN(CC(=O)*)CCN(CC2)CC(=O)[O][Lu]([O]1)[O]C(=O)C3; Ala(piperidin-4-yl) = O=C([C@H](CC1CCN([*:3])CC1)N[*:1])[*:2]; dTrp(βS-Me) = C[C@@H](c1c[nH]c2ccccc12)[C@@H](N)C(=O)O; Lys(5ξ-OH) = NCC(O)CC[C@H](N)C(=O)O; NMehLys = CN[C@@H](CCCCCN)C(=O)O; 3Pal = N[C@@H](Cc1cccnc1)C(=O)O; NMehCys = CN[C@@H](CCS)C(=O)O; NMeK = CN[C@@H](CCCCN)C(=O)O

compound	Ki
CC(C)[C@@H]1NC(=O)[C@H](CCCCN)NC(=O)[C@@H](Cc2c[nH]c3ccccc23)NC(=O)[C@H](Cc2ccc(O)cc2)NC(=O)[C@H](CCSCC(=O)NCCCCCCNC(=O)CN2CCN3CCN4CCN(CC2)CC(=O)[O][Lu]([O]C(=O)C3)[O]C(=O)C4)N(C)C(=O)[C@H](CO)NC1=O [RB-0005270] (cyclo(KVS[NMehCys](DOTA(Lu)NH(CH2)6NHCOCH2)Y[dW]))	< 1 nM
C[C@@H](O)[C@@H]1NC(=O)[C@H](CC2CCNCC2)NC(=O)[C@@H]([C@@H](C)c2c[nH]c3ccccc23)NC(=O)[C@H](Cc2ccc(O)cc2)NC(=O)[C@H](CCCCNC(=O)C2CCC(CNC(=O)CN3CCN4CCN5CCN(CC3)CC(=O)[O][Lu]([O]C(=O)C4)[O]C(=O)C5)CC2)N(C)C(=O)[C@H](Cc2ccccc2)NC1=O (some centres unmarked) [RB-0006464] (cyclo(F[NMeK](X14)Y[dTrp(βS-Me)][Ala(piperidin-4-yl)]T))	1 to 3.33 nM
C[C@@H](O)[C@@H]1NC(=O)[C@H](CCC(O)CN)NC(=O)[C@@H](Cc2c[nH]c3ccccc23)NC(=O)[C@H](Cc2ccc(O)cc2)NC(=O)[C@H](CCSCC(=O)NCCCCCCNC(=O)CN2CCN3CCN4CCN(CC2)CC(=O)[O][Lu]([O]C(=O)C3)[O]C(=O)C4)N(C)C(=O)[C@H](Cc2ccccc2)NC1=O (some centres unmarked) [RB-0006317] (cyclo(F[NMehCys](DOTA(Lu)NH(CH2)6NHCOCH2)Y[dW][Lys(5ξ-OH)]T))	< 1 nM
C[C@@H](O)[C@@H]1NC(=O)[C@H](CCCCN)NC(=O)[C@@H]([C@@H](C)c2c[nH]c3ccccc23)NC(=O)[C@H](Cc2cccnc2)NC(=O)[C@H](CCSCC(=O)NCCCCCCNC(=O)CN2CCN3CCN4CCN(CC2)CC(=O)[O][Lu]([O]C(=O)C3)[O]C(=O)C4)N(C)C(=O)[C@H](Cc2ccccc2)NC1=O [RB-0003382] (cyclo([3Pal][dTrp(βS-Me)]KTF[NMehCys](DOTA(Lu)NH(CH2)6NHCOCH2)))	< 1 nM
C[C@@H](O)[C@@H]1NC(=O)[C@H](CC2CCNCC2)NC(=O)[C@@H]([C@@H](C)c2c[nH]c3ccccc23)NC(=O)[C@H](Cc2ccc(O)cc2)NC(=O)[C@H](CCCCCNC(=O)CN2CCN3CCN4CCN(CC2)CC(=O)[O][Lu]([O]C(=O)C3)[O]C(=O)C4)N(C)C(=O)[C@H](Cc2ccccc2)NC1=O [RB-0006449] (cyclo(F[NMehLys](DOTA(Lu))Y[dTrp(βS-Me)][Ala(piperidin-4-yl)]T))	< 1 nM
